Molecular target: L-type voltage-dependent calcium channel (Rattus norvegicus, UniProt P22002+P27732+Q02485)
Experiment: Inhibition of L-type voltage-dependent calcium channel in Sprague-Dawley rat aorta at 10 uM by Magnus method
Type: tissue-based
Settings: Sprague-Dawley, isolated rat aorta
assay metric: inhibition at 10 µM (%)
One number for each entry, in %.

Reference set, count: 4
O=C(O)C1=CNC=C(C(=O)OC/C=C/c2ccccc2)C1c1ccc(Cl)cc1 (stereo not given)
16
COC(OC)C1=C(C(=O)OC/C=C/c2ccccc2)C(c2cccc(C(F)(F)F)c2)C(C(=O)O)=CN1 (stereo not given)
17
COC(OC)C1=C(C(=O)OC/C=C/c2ccccc2)C(c2ccc(Cl)cc2)C(C(=O)O)=CN1 (stereo not given)
7.9
COC(OC)C1=C(C(=O)OC/C=C/c2ccccc2)C(c2ccc(Cl)c(Cl)c2)C(C(=O)O)=CN1 (stereo not given)
31

Pending compound:
Challenge: Provide value of inhibition at 10 µM for this record tested with L-type voltage-dependent calcium channel (Rattus norvegicus, UniProt P22002+P27732+Q02485): COc1c(Cl)cc(C2C(C(=O)O)=CNC(C(OC)OC)=C2C(=O)OC/C=C/c2ccccc2)cc1Cl (stereo not given)
Response given: 20

---

Target: L-type voltage-dependent calcium channel (Rattus norvegicus, UniProt P22002+P27732+Q02485)
Experiment: Inhibition of L-type voltage-dependent calcium channel in Sprague-Dawley rat aorta at 10 uM by Magnus method
Type: tissue-based
Settings: Sprague-Dawley, isolated rat aorta
assay metric: inhibition at 10 µM (%)
Numbers only, in %.

Worked examples follow.
O=C(O)C1=CNC=C(C(=O)OC/C=C/c2ccccc2)C1c1cccc(C(F)(F)F)c1 (stereo unspecified)
40
COC(OC)C1=C(C(=O)OC/C=C/c2ccccc2)C(c2cc(Cl)cc(Cl)c2)C(C(=O)O)=CN1 (stereo unspecified)
4
COC(OC)C1=C(C(=O)OC/C=C/c2ccccc2)C(c2cccc(Cl)c2)C(C(=O)O)=CN1 (stereo unspecified)
44
COc1ccc(C2C(C(=O)O)=CNC(C(OC)OC)=C2C(=O)OC/C=C/c2ccccc2)cc1Cl (stereo unspecified)
26
COc1ccc(C2C(C(=O)O)=CNC=C2C(=O)OC/C=C/c2ccccc2)cc1Cl (stereo unspecified)
15

Challenge: Test system L-type voltage-dependent calcium channel (Rattus norvegicus, UniProt P22002+P27732+Q02485); read-out inhibition at 10 µM; what value for O=C(O)C1=CNC=C(C(=O)OC/C=C/c2ccccc2)C1c1ccc(Cl)c(Cl)c1 (stereo unspecified) ?
Response given: 41

---

Target: Voltage-dependent N-type calcium channel subunit alpha-1B (Homo sapiens)
Sequence (Q00975 whole entry): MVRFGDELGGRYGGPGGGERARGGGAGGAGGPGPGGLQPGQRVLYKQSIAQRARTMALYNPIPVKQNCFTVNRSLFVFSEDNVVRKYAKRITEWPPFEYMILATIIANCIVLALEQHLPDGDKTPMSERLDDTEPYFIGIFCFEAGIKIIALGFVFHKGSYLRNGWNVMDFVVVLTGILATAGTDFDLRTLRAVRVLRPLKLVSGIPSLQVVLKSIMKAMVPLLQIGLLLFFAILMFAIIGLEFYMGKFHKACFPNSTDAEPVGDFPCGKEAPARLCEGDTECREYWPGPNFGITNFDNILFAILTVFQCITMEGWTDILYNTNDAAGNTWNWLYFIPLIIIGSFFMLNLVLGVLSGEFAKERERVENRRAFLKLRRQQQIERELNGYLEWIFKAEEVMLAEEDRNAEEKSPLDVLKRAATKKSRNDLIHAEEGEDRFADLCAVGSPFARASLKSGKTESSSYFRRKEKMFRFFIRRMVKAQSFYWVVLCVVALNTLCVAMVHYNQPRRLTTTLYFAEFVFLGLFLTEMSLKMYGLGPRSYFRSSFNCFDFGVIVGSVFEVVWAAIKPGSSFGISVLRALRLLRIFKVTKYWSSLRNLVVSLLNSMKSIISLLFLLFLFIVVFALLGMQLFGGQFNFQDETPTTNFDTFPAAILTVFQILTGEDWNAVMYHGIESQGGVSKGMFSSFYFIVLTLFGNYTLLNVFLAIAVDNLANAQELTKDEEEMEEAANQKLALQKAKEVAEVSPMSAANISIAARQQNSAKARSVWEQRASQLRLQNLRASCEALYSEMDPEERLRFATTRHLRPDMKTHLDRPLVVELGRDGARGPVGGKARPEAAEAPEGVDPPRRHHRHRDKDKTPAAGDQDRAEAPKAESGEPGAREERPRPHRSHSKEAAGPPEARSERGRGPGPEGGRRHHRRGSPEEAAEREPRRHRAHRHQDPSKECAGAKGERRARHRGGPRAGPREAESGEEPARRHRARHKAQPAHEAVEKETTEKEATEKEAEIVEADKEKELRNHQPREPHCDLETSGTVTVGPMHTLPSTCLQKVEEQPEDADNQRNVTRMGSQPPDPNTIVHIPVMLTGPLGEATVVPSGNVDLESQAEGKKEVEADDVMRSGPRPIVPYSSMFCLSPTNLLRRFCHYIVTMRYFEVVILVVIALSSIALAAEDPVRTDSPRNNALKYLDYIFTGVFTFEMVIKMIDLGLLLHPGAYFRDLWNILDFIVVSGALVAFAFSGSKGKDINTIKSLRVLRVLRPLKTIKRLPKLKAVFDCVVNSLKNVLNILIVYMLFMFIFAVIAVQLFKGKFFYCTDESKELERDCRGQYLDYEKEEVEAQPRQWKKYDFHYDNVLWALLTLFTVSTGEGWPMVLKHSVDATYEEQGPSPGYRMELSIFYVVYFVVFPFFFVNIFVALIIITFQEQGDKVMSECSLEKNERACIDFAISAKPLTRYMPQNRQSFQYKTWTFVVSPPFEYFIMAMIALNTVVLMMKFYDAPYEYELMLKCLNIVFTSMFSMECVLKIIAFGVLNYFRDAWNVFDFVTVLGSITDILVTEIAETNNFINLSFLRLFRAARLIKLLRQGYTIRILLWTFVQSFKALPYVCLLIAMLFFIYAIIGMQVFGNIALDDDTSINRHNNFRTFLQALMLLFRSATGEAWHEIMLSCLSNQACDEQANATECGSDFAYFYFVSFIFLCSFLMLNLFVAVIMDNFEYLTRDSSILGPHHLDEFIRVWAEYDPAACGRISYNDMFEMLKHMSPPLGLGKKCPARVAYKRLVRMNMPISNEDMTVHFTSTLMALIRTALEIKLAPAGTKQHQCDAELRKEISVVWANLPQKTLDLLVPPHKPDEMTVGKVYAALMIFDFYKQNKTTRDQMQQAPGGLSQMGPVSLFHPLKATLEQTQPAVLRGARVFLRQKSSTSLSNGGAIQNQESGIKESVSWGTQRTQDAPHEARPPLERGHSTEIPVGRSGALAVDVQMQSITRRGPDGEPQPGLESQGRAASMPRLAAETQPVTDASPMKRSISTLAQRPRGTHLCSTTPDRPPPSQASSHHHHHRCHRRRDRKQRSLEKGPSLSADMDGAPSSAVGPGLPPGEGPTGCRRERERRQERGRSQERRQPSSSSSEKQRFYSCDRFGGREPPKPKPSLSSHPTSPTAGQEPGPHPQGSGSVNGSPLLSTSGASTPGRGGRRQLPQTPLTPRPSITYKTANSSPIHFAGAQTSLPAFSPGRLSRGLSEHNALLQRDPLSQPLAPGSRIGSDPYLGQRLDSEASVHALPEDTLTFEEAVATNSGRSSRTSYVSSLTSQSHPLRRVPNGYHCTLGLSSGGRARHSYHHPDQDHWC
Experiment: Inhibition of N-type voltage-dependent calcium channel CaV2.2 in human IMR32 cells assessed as inhibition of KCl-induced increase in intracellular calcium concentration preincubated for 4 to 5 mins before KCl challenge
assay metric: IC50 (nM)
One number for each entry, in nM.

Solved entries (count: 6):
COc1c(Cl)cc(C2C(C(=O)O)=CNC=C2C(=O)OC/C=C/c2ccccc2)cc1Cl (single isomer, unassigned; (+))
720
COc1c(Cl)cc(C2C(C(=O)O)=CNC=C2C(=O)OC/C=C/c2ccccc2)cc1Cl (stereo in doubt; 3f)
580
COc1c(Cl)cc(C2C(C(=O)O)=CNC(C(OC)OC)=C2C(=O)OC/C=C/c2ccccc2)cc1Cl (configuration not stated)
1200
COC(OC)C1=C(C(=O)OC/C=C/c2ccccc2)C(c2cccc(C(F)(F)F)c2)C(C(=O)O)=CN1 (configuration not stated)
1100
O=C(O)C1=CNC=C(C(=O)OC/C=C/c2ccccc2)C1c1cccc(C(F)(F)F)c1 (configuration not stated)
1200
COC(OC)C1=C(C(=O)OC/C=C/c2ccccc2)C(c2cccc(Cl)c2)C(C(=O)O)=C(C)N1 (configuration not stated)
3000

Shifting focus to the molecule that follows.
Challenge: May I ask what IC50 has been recorded for COC(OC)C1=C(C(=O)OC/C=C/c2ccccc2)C(c2ccc(Cl)c(Cl)c2)C(C(=O)O)=CN1 (configuration not stated) ?
Response given: 520
